Please provide measured EC50 for the entries that follow.
# Tested on: RSV A2 strain
# TEST_METHOD_NOTES: In vitro CPE (CytoPathic Effect) inhibition effect evaluation test, RSV type A
# Assay type: cell-based
# ASSAY_CONTEXT: human respiratory syncytial virus; inhibitory effect against RSV type A (RSV A2 strain), HEp-2 cells, CPE inhibition; read-out: EC50
# Method: The test sample is diluted in advance to an appropriate concentration with DMSO, and 3-fold series of serial dilutions were prepared on a 384-well plate (0.32 μL/well). […] The luminescent signal was then measured by EnVision (PerkinElmer). […] In the case of evaluation against RSV type B, RSV B (Wash/18537 strain) was infected in the same manner as the type A, cultured for 5 days, and quantitated in the same manner as for the A2 strain.

Output EC50 of O=C(NC1(C(=O)O)C2CC3CC(C2)CC1C3)c1cnc(N2CC3(CCOCC3)c3cc(C4=CCCC4)ccc32)nc1C(F)(F)F (stereo not drawn) [Compound I-128] < 10 nM

Output EC50 of O=C(NC1(C(=O)O)C2CC3CC(C2)CC1C3)c1cnc(-c2cn(-c3ncccn3)c3cc(OC4CCN(c5ncc(F)cn5)CC4)ccc23)nc1C(F)(F)F (stereo not drawn) [Compound I-468] < 10 nM

Output EC50 of CC(F)(F)c1nc(N2CC3(CCOCC3)c3cc(OC4CN(CC(F)(F)F)C4)ccc32)ncc1C(=O)NC1(C(=O)O)C2CC3CC(C2)CC1C3 (stereo not drawn) [Compound I-592] < 10 nM
